# EXPERIMENTAL TARGET: Tyrosine-protein phosphatase non-receptor type 1 (Homo sapiens, UniProt P18031)
# Sequence (P18031 whole entry): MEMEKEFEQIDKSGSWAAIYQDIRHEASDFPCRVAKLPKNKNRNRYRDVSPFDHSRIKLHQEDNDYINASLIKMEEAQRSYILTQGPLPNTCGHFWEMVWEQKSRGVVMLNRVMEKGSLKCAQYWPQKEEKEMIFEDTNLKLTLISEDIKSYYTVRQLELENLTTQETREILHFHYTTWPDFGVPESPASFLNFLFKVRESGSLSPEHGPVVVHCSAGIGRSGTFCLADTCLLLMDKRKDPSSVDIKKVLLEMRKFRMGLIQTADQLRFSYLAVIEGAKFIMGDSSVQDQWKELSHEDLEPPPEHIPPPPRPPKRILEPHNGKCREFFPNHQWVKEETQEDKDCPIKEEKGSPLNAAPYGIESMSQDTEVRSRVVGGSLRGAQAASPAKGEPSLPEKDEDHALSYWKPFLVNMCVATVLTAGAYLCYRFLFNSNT
# TEST PROTOCOL: Inhibition of recombinant PTP1B (unknown origin) using pNPP substrate
pIC50: −log10 of the molar value.
READOUT LABEL: pIC50

Examples with answers:
COC(=O)c1scc(-c2ccc(NC(=O)c3ccc4ccccc4c3)cc2)c1OC; 5.28
COC(=O)c1scc(-c2ccc(NC(=O)Cc3c(Cl)cccc3Cl)cc2)c1OC; 4.79
COC(=O)c1scc(-c2ccc(NC(=O)c3ccc(F)c(Cl)n3)cc2)c1OC; 4.91
COC(=O)c1scc(-c2ccc(NC(=O)c3ccc(C(F)(F)F)cc3Br)cc2)c1OC; 4.78
COC(=O)c1scc(-c2ccc(NC(=O)c3ccc(C(F)(F)F)cc3)cc2)c1OC; 4.83
COC(=O)c1scc(-c2ccc(NC(=O)c3ncc(Cl)cc3Br)cc2)c1OC; 4.95

a = COC(=O)c1scc(-c2ccc(NC(=O)c3ccc(C(F)(F)F)nc3)cc2)c1OC
b = COC(=O)c1scc(-c2ccc(NC(=O)c3cccs3)cc2)c1OC
// compare measured pIC50, left a , right b , return larger Mark your answer with the label of the selected entry.
a

P = COC(=O)c1scc(-c2ccc(NC(=O)c3cccc(OC(F)(F)F)c3)cc2)c1OC
Q = COC(=O)c1scc(-c2ccc(NC(=O)c3cc(I)ccc3F)cc2)c1OC
Determine, for P and Q , which has the greater value of pIC50. Answer with the label corresponding to your selection.
P

----------
# EXPERIMENTAL TARGET: Tyrosine-protein phosphatase non-receptor type 1 (Homo sapiens)
# TEST PROTOCOL: Inhibition of recombinant PTP1B (unknown origin) using pNPP substrate
READOUT LABEL: IC50 (µM)

P = COC(=O)c1scc(-c2ccc(NC(=O)c3cccc(I)c3)cc2)c1OC
Q = COC(=O)c1scc(-c2ccc(NC(=O)c3ccc(OC)nc3)cc2)c1OC
Endpoint returns whichever of P and Q has the numerically higher IC50. Select an item and report its label.
Q
(Q: 22.3 µM, P: 14.5 µM)

----------
# EXPERIMENTAL TARGET: UniProtKB P18031
# TEST PROTOCOL: Inhibition of recombinant PTP1B (unknown origin) using pNPP substrate
pIC50: −log10 of the molar value.
READOUT LABEL: pIC50

COC(=O)c1scc(-c2ccc(NC(=O)c3ccccn3)cc2)c1OC; 4.95
COC(=O)c1scc(-c2ccc(NC(=O)c3cccc(C(F)(F)F)c3)cc2)c1OC; 4.91
COC(=O)c1scc(-c2ccc(NC(=O)c3ccc(C#N)nc3)cc2)c1OC; 4.90
